experiment: Acute toxicity in mouse; details: mouse, in vivo, po
Observable: LD50 (mg/kg)

* COc1ccc2c(=O)c(-c3ccccc3)c(-c3ccc(C)cc3)oc2c1CN(C)C | 80

---

experiment: Acute toxicity in mouse; conditions: mouse, in vivo, ip
Observable: LD50

• COc1ccc2c(=O)c(-c3ccccc3)c(-c3ccc(C)cc3)oc2c1CN(C)C = 28.2 mg/kg

---

assay: Convulsivant effect on mouse; conditions: mouse, in vivo, po
Observable: TD50 (mg/kg)

* COc1ccc2c(=O)c(C)c(-c3ccccc3)oc2c1CN(C)C [Dimefline] | 8.9
* COc1ccc2c(=O)c(-c3ccccc3)c(-c3ccc(C)cc3)oc2c1CN(C)C [PV1] | 58

---

assay: Acute toxicity in rat; design: species or system rats Sprague-Dauley; conditions: in vivo, po, os, read-out: LD50 and F.L.
Observable: LD50 (mg/kg)

* COc1ccc2c(=O)c(-c3ccccc3)c(-c3ccc(C)cc3)oc2c1CN(C)C | 76.4

---

experiment: Acute toxicity in rat; parameters: species or system rats Sprague-Dauley; details: in vivo, ip, read-out: LD50 and F.L.
Observable: LD50 (mg/kg)

* COc1ccc2c(=O)c(-c3ccccc3)c(-c3ccc(C)cc3)oc2c1CN(C)C | 22.5
